- tgt: hGAT3 (Homo sapiens, UniProt P48066)
- Construct: expressed in transfected cells
- Sequence (P48066 1-632): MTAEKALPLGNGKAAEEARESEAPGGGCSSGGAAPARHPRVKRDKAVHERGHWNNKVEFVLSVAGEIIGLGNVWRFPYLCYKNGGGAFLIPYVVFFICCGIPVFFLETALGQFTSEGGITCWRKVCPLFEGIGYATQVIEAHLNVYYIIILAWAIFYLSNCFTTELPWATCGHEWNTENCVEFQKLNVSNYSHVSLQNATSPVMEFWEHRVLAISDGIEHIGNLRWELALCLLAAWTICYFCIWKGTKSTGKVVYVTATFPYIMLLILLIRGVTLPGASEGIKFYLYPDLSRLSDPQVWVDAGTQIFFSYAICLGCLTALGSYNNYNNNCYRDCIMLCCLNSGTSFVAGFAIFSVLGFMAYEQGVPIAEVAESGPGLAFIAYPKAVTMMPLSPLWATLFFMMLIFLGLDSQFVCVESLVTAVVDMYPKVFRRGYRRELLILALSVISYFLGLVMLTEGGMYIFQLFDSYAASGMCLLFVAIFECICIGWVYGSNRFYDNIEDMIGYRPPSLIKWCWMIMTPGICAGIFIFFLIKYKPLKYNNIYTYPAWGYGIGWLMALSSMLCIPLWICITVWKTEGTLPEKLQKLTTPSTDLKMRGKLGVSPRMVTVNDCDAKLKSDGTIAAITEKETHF
- test-name: [3H]GABA uptake inhibition at hGAT3 stably expressed in CHO Flp-In cells
- Format: cell-based
- measurement-setup: 30 nM [3H]GABA, 3 min, CHO Flp-In cells stably expressing hGAT3; read-out: IC50 hGAT3
pIC50: −log10 of the molar value.

[
  {
    "compound": "CCCC1=C(C(=O)O)CNC(N)=N1",
    "pIC50": "< 3.00"
  },
  {
    "compound": "NC1=NC(CCc2ccccc2)C(C(=O)O)CN1 (stereo not shown)",
    "pIC50": "< 3.00"
  },
  {
    "compound": "NC1=NCC(C(=O)O)CN1CCCC(c1ccccc1)c1ccccc1 (stereo not shown)",
    "pIC50": "< 3.00"
  },
  {
    "compound": "C[C@H]1N=C(N)NC[C@@H]1C(=O)O (single isomer, unassigned) [u-15b]",
    "pIC50": "< 3.00"
  },
  {
    "compound": "NC1=NC=C(C(=O)O)CN1.O=C(O)C(F)(F)F",
    "pIC50": "< 3.00"
  },
  {
    "compound": "CC1=C(C(=O)O)CNC(N)=N1",
    "pIC50": "< 3.00"
  },
  {
    "compound": "NC1=N[C@@H](CCc2ccc(-c3ccccc3)cc2)[C@@H](C(=O)O)CN1 (relative stereo)",
    "pIC50": "< 3.00"
  },
  {
    "compound": "O=C(O)C1CN=C(NCCc2ccccc2)NC1 (stereo not shown)",
    "pIC50": "< 3.00"
  },
  {
    "compound": "CC(C)C1N=C(N)NCC1C(=O)O (stereo not shown)",
    "pIC50": "< 3.00"
  },
  {
    "compound": "C[C@@H]1N=C(N)NC[C@@H]1C(=O)O (single isomer, unassigned) [l-15a]",
    "pIC50": "< 3.00"
  },
  {
    "compound": "NC1=NCC(C(=O)O)CN1CCC(c1ccccc1)c1ccccc1 (stereo not shown)",
    "pIC50": "< 3.00"
  },
  {
    "compound": "C[C@@H]1N=C(N)NC[C@@H]1C(=O)O (single isomer, unassigned) [l-15b]",
    "pIC50": "< 3.00"
  },
  {
    "compound": "CC(C)C1=C(C(=O)O)CNC(N)=N1",
    "pIC50": "< 3.00"
  },
  {
    "compound": "CCCC1N=C(N)NCC1C(=O)O (stereo not shown)",
    "pIC50": "< 3.00"
  },
  {
    "compound": "NC1=NCC(C(=O)O)CC1 (stereo not shown) [compound 2, reference compound]",
    "pIC50": "< 3.00"
  },
  {
    "compound": "CCN1CC(C(=O)O)CN=C1N.Cl (stereo not shown)",
    "pIC50": "< 3.00"
  },
  {
    "compound": "C[C@H]1N=C(N)NC[C@@H]1C(=O)O (single isomer, unassigned) [u-15a]",
    "pIC50": "< 3.00"
  },
  {
    "compound": "Cl.NC1=NCC(C(=O)O)CN1Cc1ccccc1 (stereo not shown)",
    "pIC50": 3.93
  },
  {
    "compound": "NC1=NCC(C(=O)O)CN1Cc1ccc(-c2ccccc2)cc1 (stereo not shown)",
    "pIC50": 3.40
  }
]
